Origin of values: the nanobody polyreactivity screen of Harvey et al. (2022)

- PROTOCOL: yeast display, Sf9 membrane polyspecificity reagent, FACS + sequencing; frameworks hold sequencing errors
MEASUREMENT LABEL: polyreactivity (PSR sort gate)

Worked examples follow.
- SEQ TEXT: "QVQLVESGGGIVQAGGSLRLTCAASGRIFLANAMGWYRQAPGKERELVAAISLSGGRTYYADSLKGRFTISRDNAKNSVYFQRNSLKPEDTAVYYCAAEFYPIRYYGGYDYWGQGTQVTVSS"
  polyreactivity (PSR sort gate): "low polyreactivity"
- SEQ TEXT: "QVQLVESGGCLVQAGGSLRLSCAASGFIFRRYALGWNRQAPGKERELVAAISSSGGRTTYADSVKGRFTISRDNAKNTVYLQMNSLKPEDTAVYYCNADLCPGNHDGYWGQGTQVTVSS"
  polyreactivity (PSR sort gate): "low polyreactivity"
- SEQ TEXT: "QVQLVESGGGLVQAGGSLRLSCAASGSILYYYAMGWYRQAPGKERELVAAISWSGASTYYADSVKGRFTISRDNAKNTVYLQMNSLIPEDTAVYYCNADYTRDRYVANRYYYWGQGTQVTVSS"
  polyreactivity (PSR sort gate): "high polyreactivity"
- SEQ TEXT: "QVQLVESGGGLVQAGGSLRLSCAASGSTFGLYAMGWYRQAPGKERELVAAISSGGRTNYADSVKGRFTISRDNAKNTVYLQMNSLKPEDTAVYYCASAYIRGSRRYDYWGQGTQVTVSS"
  polyreactivity (PSR sort gate): "high polyreactivity"
- SEQ TEXT: "QVQLVESGGGLVQAGGSLRLSCAASGSTFGAYAMGWYRQAPGKERELVAAISKRGGSTYYADSVKGRFTISLDNAKNTVYLQMNSLKPEDTAVYYCATDHFSPTYGYWGQGTQVTVSS"
  polyreactivity (PSR sort gate): "low polyreactivity"

Find the recorded polyreactivity (PSR sort gate) belonging to QVQLVESGGRLVQAGGSLRLSCAASGRIFRVYAMGWYRQAPGKERELVAAISSRGGRTYYADSVKGRFTISRDNAKNTVYLQMNSLKPEDTAVYFCAADGRSSSRTTSRYDYWGQGTQVTVSS and report it. high polyreactivity

One more sequence: QVQLVESGGGLVQAGGSLRLSCAASGSIFVRNAMGWYRQAPGKERELVAAITYRGGSTYYADSVKGRFTISRDNAKNTVYLQMNSLKPEDTAVYYCAARYWQSYRSQVTHSSTLDYWGQGTQVTVSS low polyreactivity

// next record QVQLVESGGGLVQAGGSLRLSCAASGRTFQEYAMGWYRQAPGKERELVADISDGGSTNYADSVKGRFTISRDNAKNTVYLQMNSLKPEDTAVYYCAADQYHGVGINFRSDYDYWGQGTQVTVSS low polyreactivity

---

- PROTOCOL: yeast display, Sf9 membrane polyspecificity reagent, FACS + sequencing; frameworks hold sequencing errors
MEASUREMENT LABEL: polyreactivity (PSR sort gate)

- SEQ TEXT: "QVQLVESGGRLVQAGGSLRLTCAASGITFGDYAMGWYRQAPGKERELVAGINWSGDGTYYADSVKGRFTISRDNAKNTVYLQMNSLKPEDTAVYYCAAETFYDYGGYDYWGQGTQVTVSS"
  MEASURED: "low polyreactivity"
- SEQ TEXT: "QVQLVDSGGGLVQAGGSLRLSCAASGSIILVNAMGWYRQAPGKEREFVAAISTSSGSTYYADSVKGRFTISRDNAKNTVYLQMNSLKPEDTAVYYCAADEVYSRGIWPVEDDYWGQGSQVTVSS"
  MEASURED: "low polyreactivity"
- SEQ TEXT: "QVQLVESGGGLVQAGGSLRLSCAASGIIFTYNAMGWSRQAPGKERELVAAISWRGGSTYYADSVKGRFTISRDNAKNTVYLQMNSLKPEDTAVYYCARYGTDHRLGYGYWGQGTQVTVSS"
  MEASURED: "low polyreactivity"

---

- PROTOCOL: yeast display, Sf9 membrane polyspecificity reagent, FACS + sequencing; frameworks hold sequencing errors
MEASUREMENT LABEL: polyreactivity (PSR sort gate)

- SEQ TEXT: "QVQLVESGGGLVQAGGSLRLSCAASGLIFGGTAMGWYRQAPGKERELVAAITYRTGSTYYADSVKGRFTISRDNAKNTVYLQMNSLKPEDTAVYYCAAAVSLGYPVAFYYWGQGTQVTVSS"
  polyreactivity (PSR sort gate): "low polyreactivity"
- SEQ TEXT: "QVQLVESGGGLVQAGGSLRLSCAASGSILDYYAMGWYRQAPGKERELVAAIRVNGGSTYYADSVKGRFTISRDNAKNTVYLQMNSLKPEDTAVYFCAARFSRFRRTRSEYDYWGQGTQVTVSS"
  polyreactivity (PSR sort gate): "high polyreactivity"
- SEQ TEXT: "QVQLVESGGGLVQAGGSLRLSCAASGFTFNVYAMGWYRQAPGKERELVARITRRGGSTYYADSVKGRFTISRDNAKNTVYLQMNSLKPEDTAVYYCNADSPVVSGRGGRRSAYLNDYWGQGTKVTVSS"
  polyreactivity (PSR sort gate): "high polyreactivity"
- SEQ TEXT: "QVQLVESGGGLVQAGGSLRLSCAASGRIFGVYAMGWYRQAPGKERELFADISWSGSGTYADSVKGRFTISRDNAKNTVYLQMNSLKPEDTAVYYCNVDPAQIHAGYVGYDYWGQGTQVTVSS"
  polyreactivity (PSR sort gate): "low polyreactivity"
- SEQ TEXT: "QVQLVESVGGFVQAGGSLRLSCAASGRTFGRYAMGWYRQAPGKEWELVAAITRSGSSTYYADSVKGRFTISRDNAKNTVYLQMNSMKPEDTAVYYCAALYGPFYSTGEYWGQGTQVTVSS"
  polyreactivity (PSR sort gate): "high polyreactivity"

Recorded polyreactivity (PSR sort gate) for QVQLVESGGGLVQAGGSLRLSCAASGSILGINVMGWYRQAPGKERELVAAISRRGGSTYYADSVKGRFTISRDNAKNTVYLQMNSLKPEDTAVYYCAATRTARTMGYCGQGTQVTVSS , please? high polyreactivity

Another sequence to check: QVQLVESGGGLVQAGGSHRLSCAASGRIFSTYAMGWYRQAPGKERELVAAINKIGGSTYYADSVKGRFTISRDNAKNNVYLQMNSLKPEDTAVDYCAADAPHYPVRRYYYWGQGTQVTVSS low polyreactivity

And what about the sequence QVHLVESGGGLVQAGGSLRLSCAASGRTFRRYAMGWYRQAPGKERELVAAISYNGGRTYYADSVKGRFTISRDNAKNSVYLQMNILKPEDTAVYYCNAERGFSDYWGQGTQVTVSS ? high polyreactivity

Next: QVQLVESGGGLVQAGGSLRLSCAASGSTFGGYAKGWYRQAPGKERELVAAISGSGVRTYYADSVKGRFTISRDNAKNTVYLQMNSLKPEDTAVYYCAKRVRYPGDRYYYWGQGTQVTVSS high polyreactivity

For QVQLVESGGGLVQAGGSLRLSCAASGRIFYPYVMGWYRQAPGKERELVAAITGGGSTYYADSVKGRFTISRDNAKNTVYLQMNSLKPEDTAVYYCAKRSYGDRDERYDSWGQGTQVTVSS then? low polyreactivity

Quick one: LVQLQESGGGLVQPGGRLRLSCAASGTISPGGYMGWYRQAPGKERELVASINVGGRTNYADSVKGRFTISRDNAKNTVYLQMNSLKPEDNAVSYCAVWGRNRLQLSYWGQGTQVTVSS low polyreactivity

Please answer likewise for QVQLVESGGGLVQAGGSLRLSCAASGSTTYYAMGWYRQAPGKERELVAAISYSGGSTFYADSVKGRFRISRDNAKNTVYLQMNSLKPEDTAVYYCAADLGFPFDYWGQGTKVTVSS low polyreactivity

Okay, and QVQLVESGGGLVQAGGSLRLSCAASGITFSFYAMGWYRQAPRKERELVAGITRSGGDTYYADSVKGRFTISRDNAKNTVYLQMNSLKPEDTAVYDCADAWFFYRRQYTFFAGRMDYWGQGTQVTVSS ? high polyreactivity

# repeat for QVQLVESGGGLVQAGGSLRLSCAASGLTFVYYAMGWYRQAPGKERELVASITRGGSTNYADSVKGRFTISRDNAKNTVYLQMTSLKPEDTAVYYCAAGYGGWAWIHVSYGGDYWGQGTQVSVSS low polyreactivity

---

- PROTOCOL: yeast display, Sf9 membrane polyspecificity reagent, FACS + sequencing; frameworks hold sequencing errors
MEASUREMENT LABEL: polyreactivity (PSR sort gate)

Reference set, count: 4
- SEQ TEXT: "QVQLVESGGGLVQAGGSLRLSCAASGFIFAWYAMGWYRQAAGKERQLVATISSSGARTYYADSVKGRFTISRDNAKITVYLQMNSLKPEDTAVYYCAFGSVGRLKFYYWGQGTQVTVSS"
  MEASURED: "high polyreactivity"
- SEQ TEXT: "QVQLVESGGGLVQAGGSLRLSCAASGRIFVKYVMGWYRQAPGKERELVAAISSSGGRTYYADSVKGRFTISRDNAKNTVYLPMNSLKPEDTAVYYCNAVRRRSSLKLDSWGQGTQVTVSS"
  MEASURED: "high polyreactivity"
- SEQ TEXT: "QVQLVESGGGLVQAGGSLRLSCAASGRTFIYYAMGWYRQAPGKERELVAGISRNGGRTYYADSVKGRFTISRDNAKNTVYLQMNSLKPEDTAVYYCNARTYSYRGYNYWGQGTQVTVSS"
  MEASURED: "high polyreactivity"
- SEQ TEXT: "QVQLVESGGGLVQAGGSLRLSCAASGSTFSRNTMGWYRQAPGKERELVAAISKSGGRTYYADSVKGRFTISRDNAKNTVYLQMNSLKPEDTAVYYCNAAVYAYASDYWGQGTQVTVSS"
  MEASURED: "high polyreactivity"

What polyreactivity (PSR sort gate) value was documented for this sequence, QVQLVESGGGLVQAGGSLRLSCAASGSTFKIYAMGWYRQAPGKERELVARITGRGGSTYYADSVKGRFTISRDNAKNTVYLQMNSLKPEDTAVYYCAREWYQYSPYHRFDYWGQGTQVTVSS ? high polyreactivity

Request: QVQLVESGGGLVQAGGSLRLSCAASGSIFKYYVMGWYRQAPGKERELVAAISSGGGSTYYADSVKGRFTISRDNAKNTVYLQMNSLKPEDTAVYYCNKKYRSRWQGPFDYWGQGTQVTVSS high polyreactivity

What would you report for QVQLVESGAGLVQAGGSLRLSCAASGIIIPYYVMGRYRQAPGKEMELVAAISGSGGSTYYADSVKGRFTISRDNAKYTVYLQLNSLKPEAPAVYYCARYYYQFGGYEYWGQGTQVTVSS ? high polyreactivity

Same question for QVQLVESGGGLVQAGGSLRLSCAASGRTSVVNAMGWYRQAPGKERELVAAITSGGSTHYADSVKGRFTISRDNAKNTVYLPMNSLKPEDTAVYYCNARDRRRTNLLDYWGQGTQVTVSS please. low polyreactivity

Okay, and QVQLVESGGGLVQAGGSLRLSCAASVSIFETYAMGWSRQAPGKERELDAAISSSGGTTYYADSVKGRFTISRDTAKNTVYLQMNSLKPEDTAVYYCAARSAATHWTFLFYYDFDYWGQGTQVTVSS ? low polyreactivity
